Tested on: M. tuberculosis H37Rv
Experiment: microbe, parasite or virus in culture
Type: cell-based
Settings: Mycobacterium tuberculosis, 168 h; H37Rv, 7 days, Middlebrook 7H9 with OADC and glycerol; read-out: MIC (dose-response)
What MIC was measured for each of the following?
Write the value in µM as a bare number.

Prompt: What value of measured MIC is listed for NNC(=O)c1ccncc1 ?
Response: 4.61

Prompt: What value of measured MIC is listed for Cc1nnc(-c2noc3c(F)c4c(cc23)CC2(C(=O)NC(=O)NC2=O)[C@H]2[C@H](C)O[C@H](C)CN42)o1 ?
Response: 7.26

Prompt: What value of measured MIC is listed for COc1c(N2C[C@@H]3CCCN[C@@H]3C2)c(F)cc2c(=O)c(C(=O)O)cn(C3CC3)c12 ?
Response: 0.38

Prompt: What value of measured MIC is listed for CC(=O)NC[C@H]1CN(c2ccc(N3CCOCC3)c(F)c2)C(=O)O1 ?
Response: 1.51

---

Experiment: in vivo
Conditions: BALB/c, mouse, 300 mg/kg
Property measured: Cmax (µg/mL)
Write the value in µg/mL as a bare number.

Prompt: What value of measured Cmax is listed for Cc1nnc(-c2noc3c(F)c4c(cc23)CC2(C(=O)NC(=O)NC2=O)[C@H]2[C@H](C)O[C@H](C)CN42)o1 [Compound 22] ?
Response: 165

---

Tested on: M. tuberculosis H37Rv
Experiment: microbe, parasite or virus in culture
Assay type: cell-based
Conditions: Mycobacterium tuberculosis, read-out: MIC90, H37Rv
Values of MIC90 strictly less than 0.2 µM map to fulfilled, and values of at least 0.2 µM map to not fulfilled.

Prompt: Please indicate whether the reported MIC90 of COc1c(N2C[C@@H]3CCCN[C@@H]3C2)c(F)cc2c(=O)c(C(=O)O)cn(C3CC3)c12 [Moxifloxacin, moxifloxacin] is strictly below 0.2 µM.
Response: not fulfilled

Prompt: Please indicate whether the reported MIC90 of CO[C@H]1/C=C/O[C@@]2(C)Oc3c(C)c(O)c4c(O)c(c(/C=N/N5CCN(C)CC5)c(O)c4c3C2=O)NC(=O)/C(C)=C\C=C\[C@H](C)[C@H](O)[C@@H](C)[C@@H](O)[C@@H](C)[C@H](OC(C)=O)[C@@H]1C [Rif, rifampicin] is strictly below 0.2 µM.
Response: fulfilled

Prompt: Please indicate whether the reported MIC90 of Cc1nnc(-c2noc3c(F)c4c(cc23)CC2(C(=O)NC(=O)NC2=O)[C@H]2[C@H](C)O[C@H](C)CN42)o1 [Compound 22] is strictly below 0.2 µM.
Response: not fulfilled

Prompt: Please indicate whether the reported MIC90 of CC(C)=CCC/C(C)=C/CNCCNC1C2CC3CC(C2)CC1C3 (stereo not drawn) [SQ109] is strictly below 0.2 µM.
Response: not fulfilled

Prompt: Please indicate whether the reported MIC90 of NNC(=O)c1ccncc1 [Isoniazid, isoniazid] is strictly below 0.2 µM.
Response: not fulfilled

Prompt: Please indicate whether the reported MIC90 of C[C@H]1COc2c(N3CCN(C)CC3)c(F)cc3c(=O)c(C(=O)O)cn1c23 [Levofloxacin] is strictly below 0.2 µM.
Response: not fulfilled

---

Assay: in vivo
Settings: male, mouse, po, 20 mg/kg
Property measured: bioavailability (%)
Write the value in % as a bare number.

Prompt: What value of measured bioavailability is listed for Cc1nnc(-c2noc3c(F)c4c(cc23)CC2(C(=O)NC(=O)NC2=O)[C@H]2[C@H](C)O[C@H](C)CN42)o1 [Compound 22] ?
Response: 104
